Catalogue of IC50 values
# Test Target: Dual specificity tyrosine-phosphorylation-regulated kinase 3 (Homo sapiens)
# Sequence (O43781 whole entry): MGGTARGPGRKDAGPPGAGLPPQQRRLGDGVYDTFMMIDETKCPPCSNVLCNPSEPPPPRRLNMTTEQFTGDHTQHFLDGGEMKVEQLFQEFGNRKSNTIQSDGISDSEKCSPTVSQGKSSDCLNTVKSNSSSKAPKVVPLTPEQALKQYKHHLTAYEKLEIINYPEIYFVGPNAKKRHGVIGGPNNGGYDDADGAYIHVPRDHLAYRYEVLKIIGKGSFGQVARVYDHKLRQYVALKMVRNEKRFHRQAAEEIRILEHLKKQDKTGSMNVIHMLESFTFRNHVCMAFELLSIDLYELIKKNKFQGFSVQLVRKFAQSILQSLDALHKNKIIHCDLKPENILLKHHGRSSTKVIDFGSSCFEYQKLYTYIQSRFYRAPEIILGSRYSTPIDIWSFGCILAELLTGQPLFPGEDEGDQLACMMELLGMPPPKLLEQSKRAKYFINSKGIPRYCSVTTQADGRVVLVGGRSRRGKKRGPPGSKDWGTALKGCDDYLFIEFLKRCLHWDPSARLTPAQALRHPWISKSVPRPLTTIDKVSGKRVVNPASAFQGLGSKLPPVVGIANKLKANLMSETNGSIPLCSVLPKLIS

Molecule	Test Target	IC50
Cn1ccc2cc(/C=C3\N=C(NC45CC6CC(CC(C6)C4)C5)NC3=O)ccc21	Dual specificity tyrosine-phosphorylation-regulated kinase 3 (Homo sapiens)	> 10000 nM
CC1(C)C2CCC1(C)[C@H](NC1=N/C(=C\c3ccc4ncsc4c3)C(=O)N1)C2 (stereo not given in full)	Dual specificity tyrosine-phosphorylation-regulated kinase 3 (Homo sapiens)	223 nM
Cn1cc2cc(/C=C3\N=C(NC4CCCCCC4)NC3=O)ccc2n1	Dual specificity tyrosine-phosphorylation-regulated kinase 3 (Homo sapiens)	1030 nM
CC(C)C[C@H](COCc1ccccc1)NC1=N/C(=C\c2ccc3ncsc3c2)C(=O)N1	Dual specificity tyrosine-phosphorylation-regulated kinase 3 (Homo sapiens)	5430 nM
Cn1cc2cc(/C=C3\N=C(NC45CC6CC(CC(C6)C4)C5)NC3=O)ccc2n1	Dual specificity tyrosine-phosphorylation-regulated kinase 3 (Homo sapiens)	40 nM

====

# Test Target: Dual specificity tyrosine-phosphorylation-regulated kinase 4 (Homo sapiens, UniProt Q9NR20)
# Sequence (Q9NR20 whole entry): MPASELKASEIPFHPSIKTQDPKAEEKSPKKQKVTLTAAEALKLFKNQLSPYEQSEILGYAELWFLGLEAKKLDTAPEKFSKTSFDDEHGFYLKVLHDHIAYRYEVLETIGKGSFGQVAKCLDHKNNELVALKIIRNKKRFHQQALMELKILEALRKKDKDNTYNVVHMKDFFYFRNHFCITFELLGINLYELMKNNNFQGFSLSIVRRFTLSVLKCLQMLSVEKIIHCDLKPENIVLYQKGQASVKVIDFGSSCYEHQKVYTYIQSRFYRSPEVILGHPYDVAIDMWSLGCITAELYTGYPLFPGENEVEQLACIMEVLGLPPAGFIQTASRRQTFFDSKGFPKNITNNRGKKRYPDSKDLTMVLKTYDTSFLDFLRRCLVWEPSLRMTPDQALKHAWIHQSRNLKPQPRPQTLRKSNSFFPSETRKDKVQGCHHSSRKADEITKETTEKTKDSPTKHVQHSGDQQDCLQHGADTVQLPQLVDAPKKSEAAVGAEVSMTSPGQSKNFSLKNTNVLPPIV
Catalogue of IC50 values

Molecule	Qualifier Sign	IC50, µM
O=C1NC(NCC2CCOCC2)=N/C1=C\c1ccc2ncsc2c1	=	1.29
CC(=O)N1CCc2ccc(NC3=N/C(=C\c4ccc5ncsc5c4)C(=O)N3)cc21	=	0.705
O=C1NC(Nc2ccc(N3CCOCC3)cc2)=N/C1=C\c1ccc2ncsc2c1	>	10
CC(=O)OC12CC3CC(CC(NC4=N/C(=C\c5ccc6ncsc6c5)C(=O)N4)(C3)C1)C2	=	0.597
COC(=O)[C@@H](NC1=N/C(=C\c2ccc3ncsc3c2)C(=O)N1)C(C)O (some centres undefined)	=	0.699
O=C1NC(NC2CC3(CCC3)C2)=N/C1=C\c1ccc2ncsc2c1	=	0.944
O=C1NC(NC2CCCCCC2)=N/C1=C\c1ccc2nnsc2c1	>	10
O=C1NC(NC2CCC(F)(F)C2)=N/C1=C\c1ccc2ncsc2c1 (racemic)	=	0.326
Cc1nc2ccc(/C=C3\N=C(NC45CC6CC(CC(C6)C4)C5)NC3=O)cc2s1	>	10
CN1CCC(CNC2=N/C(=C\c3ccc4ncsc4c3)C(=O)N2)CC1	>	10
CC(=O)NC12CC3CC(C1)CC(NC1=N/C(=C\c4ccc5ncsc5c4)C(=O)N1)(C3)C2	=	0.263
O=C1NC(NC2CCCSC2)=N/C1=C\c1ccc2ncsc2c1 (racemic)	=	0.246
O=C1NC(N[C@H]2CCOC2)=N/C1=C\c1ccc2ncsc2c1	=	1.04
CC(NC1=N/C(=C\c2ccc3ncsc3c2)C(=O)N1)C12CC3CC(CC(C3)C1)C2 (racemic)	>	10
